# experiment.notes: BET inhibitor-based combinations targeting novel dependencies in MECOM-rearranged (r) AML: MV-4-11 cell line (AID 2202233); also: nearly all actives have a fitted effect of over 45% in size
# condition.notes: MV-4-11 AML viability, CellTiter-Glo luminescence, 48 h; series mostly up to 46 µM
Records with an inconclusive call do not appear. Calls of active or inactive are those of the source. Calls follow the shape of the dose curve; as a rule, active = well fitted inhibition curve with a large enough effect; inconclusive = small, poorly fitted or top-dose-only effect; inactive = no such curve, though single readings can be large or run the other way.
Write down the outcome that applies. Available outcomes: active, inactive

- molecule: "C=C(C)[C@@H]1CC[C@]2(C)CC[C@]3(C)[C@H](CC[C@@H]4[C@@]5(C)CC[C@H](O)C(C)(C)[C@H]5CC[C@]43C)[C@@H]12"
  label.class: "inactive"

Ask: Recorded test outcome, item Nc1ccn([C@@H]2O[C@H](CO)[C@@H](O)C2(F)F)c(=O)n1
Result: active

Ask: Recorded test outcome, item O=C(O)CC1CCC(c2ccc(-c3ccc(Nc4ccc(C(F)(F)F)nc4)cn3)cc2)CC1 (centres undefined)
Result: inactive

====

# assayed.target: Cellular tumor antigen p53 (Homo sapiens) (UniProt P04637)
# Sequence (P04637 whole entry, looked up): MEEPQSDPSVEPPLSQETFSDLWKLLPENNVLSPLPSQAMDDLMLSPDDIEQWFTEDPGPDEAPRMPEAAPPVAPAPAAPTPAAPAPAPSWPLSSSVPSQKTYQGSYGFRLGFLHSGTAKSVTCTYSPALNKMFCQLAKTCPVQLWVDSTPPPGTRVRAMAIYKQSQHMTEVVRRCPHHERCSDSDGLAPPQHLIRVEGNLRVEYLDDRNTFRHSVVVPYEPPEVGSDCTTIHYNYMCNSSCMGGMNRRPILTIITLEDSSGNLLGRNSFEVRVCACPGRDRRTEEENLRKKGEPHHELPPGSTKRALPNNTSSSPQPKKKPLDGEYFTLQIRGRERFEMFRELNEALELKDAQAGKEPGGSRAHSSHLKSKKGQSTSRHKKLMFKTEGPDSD
# experiment.notes: Primary qHTS for small molecule compounds that upregulate eGFP-tagged delta133p53alpha (in C-terminal) cells. (AID 2060324);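 also: 0% = DMSO wells and 100% = 57.5 µM 5-azacytidine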
# condition.notes: NCI-H358 delta133p53alpha-eGFP (C-terminal tag), GFP fluorescence imaging, 24 h; series mostly up to 57.5 µM
Results filed as inconclusive are left out. The source made the active and inactive calls. Calls follow the shape of the dose curve; as a rule, active = well fitted activation curve with a large enough effect; inconclusive = small, poorly fitted or top-dose-only effect; inactive = flat fitted curve, though single readings scatter.
metric: outcome

- molecule: "Cc1cccc(-c2[nH]c(C(C)(C)C)nc2-c2ccc3nccnc3c2)n1"
  metric: "outcome"
  result: "inactive"
- molecule: "CN(C)CCCN1c2ccccc2Sc2ccccc21"
  metric: "outcome"
  result: "inactive"
- molecule: "C=CC1(C)CC(=O)C2(O)C(C)(O1)C(OC(C)=O)C(O)C1C(C)(C)CCC(O)C12C (stereo unspecified)"
  metric: "outcome"
  result: "inactive"
- molecule: "CC(=O)Nc1nnc(S(N)(=O)=O)s1"
  metric: "outcome"
  result: "inactive"

List the reported outcome of each molecule below.
1. NCCS(=O)O
2. C[C@]12C=CC(=O)C=C1CC[C@H]1[C@@H]3C[C@@H](O)[C@](O)(C(=O)CO)[C@@]3(C)C[C@H](O)[C@@]12F
3. CCn1ccnc1CC1COc2ccccc2O1 (stereo unspecified)
4. Cn1c(=O)c2c(nc(/C=C/c3cccc(Cl)c3)n2C)n(C)c1=O
5. Cc1ccc([N+](=O)[O-])cc1S(=O)(=O)N(C)C

Result:
inactive
inactive
inactive
inactive
inactive

List the reported outcome of each molecule below.
1. O=C(CCc1ccncc1)NNC(=O)N1Cc2ccccc2Oc2ccc(Cl)cc21
2. Clc1ccc(C(c2ccccc2Cl)C(Cl)Cl)cc1 (stereo unspecified)

Result:
1. inactive
2. inactive

====

# assayed.target: Aldehyde dehydrogenase, mitochondrial (Homo sapiens) (UniProt P05091)
# experiment.notes: qHTS for Inhibitors of the Aldehyde Dehydrogenase Family (ALDH2) Primary screen (AID 2061308);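 also: plate controls were vehicle for no effect and reference inhibitor for full effect; nearly all actives have a fitted effect of over 55% in size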
# condition.notes: ALDH2 enzyme inhibition qHTS, 1536-well; series mostly up to 56 µM
Inconclusive results are not listed. Activity calls are given as the source filed them. The call rests on the fitted dose curve; in most records, active means well fitted inhibition curve with a large enough effect; inconclusive means small, poorly fitted or top-dose-only effect; inactive means flat fitted curve, though single readings scatter.
metric: activity change, negative = inhibition

Take a look at these entries with their results.
- molecule: "COc1c(Cl)cc2c([nH]c3cnccc32)c1NC(=O)c1cccnc1C"
  metric: "activity change, negative = inhibition"
  result: "inactive"
- molecule: "COC(=O)C1=COC(OC2OC(CO)C(O)C(O)C2O)C2C(C)C(OC(=O)/C=C/c3ccc(O)cc3)C(O)C12 (configuration not stated)"
  metric: "activity change, negative = inhibition"
  result: "inactive"
- molecule: "Cc1c(NC(=O)c2ccc(C(C)(C)C)cc2)cccc1-c1cn(C)c(=O)c(Nc2ccc(C(=O)N3CCOCC3)cc2)n1"
  metric: "activity change, negative = inhibition"
  result: "inactive"
- molecule: "CC1(C)CC[C@]2(C(=O)O[C@@H]3O[C@H](CO)[C@@H](O)[C@H](O)[C@H]3O)CC[C@]3(C)C(=CCC4[C@@]5(C)C[C@@H](O)[C@H](O)[C@](C)(C=O)C5CC[C@]43C)[C@@H]2[C@@H]1O (some centres not stated)"
  metric: "activity change, negative = inhibition"
  result: "inactive"

List the reported activity change, negative = inhibition of each molecule below.
1. C=C1/C(=C/C=C2\CCC[C@]3(C)[C@@H]([C@H](C)CC[C@@H](O)C(C)(C)O)CC[C@@H]23)C[C@@H](O)C[C@@H]1O
2. CC(=O)c1c(C)c2cnc(Nc3ccc(N4CCNCC4)cn3)nc2n(C2CCCC2)c1=O
3. C=C1C[C@@]2(O)O[C@@]3(C[C@H]2C(C)C)[C@@H](C)CC[C@@H]13

Result:
1: inactive; 2: 10.9% [at 5.59 µM] (inactive); 3: inactive

Ref: PubChem BioAssay (NCATS)
